# protocol notes: Quantitative highthroughput screen to assess conditional lethalithy of SEM cells grown in RPMI1640 with unreated serum (RPMI+s) (AID 1963883); note: nearly all actives have a fitted effect of over 35% in size; note: potency is the fitted concentration of half-maximal effect
# run parameters: SEM B-ALL cells, CellTiter-Glo viability, 48 h; series mostly up to 45.8 µM
Inconclusive results are not listed. Active and inactive are the calls of the source. Calls come from the whole dose curve; as a rule, active = well fitted cell-killing curve with a large enough effect; inconclusive = small, poorly fitted or top-dose-only effect, or effect the other way; inactive = no such curve, though single readings can be large or run the other way.
property: Potency

Observe how each entry below is paired with its result.
[
  {
    "molecule": "CS(=O)(=O)OCCCCOS(C)(=O)=O",
    "property": "Potency",
    "value measured": "20.9 µM (active)"
  },
  {
    "molecule": "C=CC(=O)Nc1cccc(Nc2nc(NC3CCC(N(C)C)CC3)nc3c2ncn3C(C)C)c1 (stereo unspecified)",
    "property": "Potency",
    "value measured": "2.09 µM (active)"
  },
  {
    "molecule": "C[C@@H]1CC=CC=CC=CC=C[C@@H](O[C@@H]2O[C@H](C)[C@@H](O)[C@H](N)[C@H]2O)C[C@@H]2O[C@](O)(C[C@@H](O)C[C@@H]3O[C@@H]3C=CC(=O)O1)C[C@H](O)[C@@H]2C(=O)O",
    "property": "Potency",
    "value measured": "inactive"
  },
  {
    "molecule": "Cc1cc(Nc2cc(CN3CCOCC3)c3nc(C)c(Cc4ccc(Cl)cc4F)n3n2)n[nH]1",
    "property": "Potency",
    "value measured": "2.09 µM (active)"
  },
  {
    "molecule": "CCN(CC)CCCCNc1ncc2cc(-c3cc(OC)cc(OC)c3)c(NC(=O)NC(C)(C)C)nc2n1",
    "property": "Potency",
    "value measured": "16.6 µM (active)"
  }
]

Count: 5. Required value per item: Potency.
1. O=c1[nH]c(=O)n(C2CCCO2)cc1F (stereo unspecified)
2. CCOc1ccccc1N=Nc1c(C)[nH]n(-c2nc(-c3ccccc3)cs2)c1=O
3. Cc1cccc(Nc2ccncc2S(=O)(=O)NC(=O)NC(C)C)c1
4. CN1CCN(c2c(F)cc3c(=O)c(C(=O)O)cn(CCF)c3c2F)CC1
5. COC(=O)N[C@H](C(=O)N[C@@H](Cc1ccccc1)[C@@H](O)CN(Cc1ccc(-c2ccccn2)cc1)NC(=O)[C@@H](NC(=O)OC)C(C)(C)C)C(C)(C)C

Result block:
["inactive", "6.62 µM (active)", "inactive", "inactive", "inactive"]

Count: 5. Required value per item: Potency.
1. CN[C@H](CC(C)C)C(=O)N[C@H]1C(=O)N[C@@H](CC(N)=O)C(=O)N[C@@H]2C(=O)N[C@H]3C(=O)N[C@H](C(=O)N[C@H](C(=O)O)c4cc(O)cc(O)c4-c4cc3ccc4O)[C@H](O)c3ccc(c(Cl)c3)Oc3cc2cc(c3O[C@@H]2O[C@H](CO)[C@@H](O)[C@H](O)[C@@H]2O[C@H]2C[C@](C)(N)[C@H](O)[C@H](C)O2)Oc2ccc(cc2Cl)[C@H]1O
2. COc1ccc(C=CC(=O)Nc2ccccc2C(=O)O)cc1OC
3. O=C1C(Cl)=C(NCCN2CCOCC2)C(=O)c2ncccc21
4. Clc1cc(Cl)cc(CNc2ncncc2-c2ccc3c(c2)OCO3)c1
5. O=C(Nc1cccnc1)N1CCC(Cc2cccc(Oc3ccc(C(F)(F)F)cn3)c2)CC1

Result block:
1. inactive
2. inactive
3. 4.69 µM (active)
4. 26.4 µM (active)
5. 2.96 µM (active)

Query block: Which Potency value belongs to C[C@H](O)[C@@H]1C(=O)N2C(C(=O)O)=C(S[C@@H]3CN[C@H](CNS(N)(=O)=O)C3)[C@@H](C)[C@@H]12 ?
Result block: inactive
